test system: Chenopodiaceae; experiment: Post-emergence test, weed control effect; assay type: in vivo; conditions: Dose 3000 g/ha, after 3 weeks
measuredAttribute: weed control effect, Chenopodiaceae (activity level)
The answer should be a number; do not append a unit.

Before answering, review these 3 worked examples.
compound	target	obsValue
Fc1ccc(-c2nnc(C(F)(F)F)cc2OCc2ccccc2)cc1F [Compound 1-210]	Chenopodiaceae	10
C/C(=N/Oc1cc(C(F)(F)F)nnc1-c1ccc(C)c(C)c1)C(C)(C)C [Compound 1-174]	Chenopodiaceae	10
CCCCCCCCC(=S)Oc1cc(C(F)(F)F)nnc1-c1ccc(F)cc1 [Compound 1-154]	Chenopodiaceae	10

Fill blank: measured weed control effect, Chenopodiaceae (activity level) of the compound CC(C)COC(=S)Oc1cc(C(F)(F)F)nnc1-c1ccc(Cl)cc1Cl [Compound 1-158] is ____.
10

Fill blank: measured weed control effect, Chenopodiaceae (activity level) of the compound COC(=O)CCCCC(=O)Oc1cc(C(F)(F)F)nnc1-c1ccc(F)cc1 [Compound 1-70] is ____.
10

Fill blank: measured weed control effect, Chenopodiaceae (activity level) of the compound CC(=O)c1cccc(S(=O)(=O)Oc2cc(C(F)(F)F)nnc2-c2ccccc2)c1 [Compound 1-140] is ____.
10

Fill blank: measured weed control effect, Chenopodiaceae (activity level) of the compound CC(C)OC(=O)OC(C)Oc1cc(C(F)(F)F)nnc1-c1ccccc1 (stereo not shown) [Compound 1-240] is ____.
10

Fill blank: measured weed control effect, Chenopodiaceae (activity level) of the compound O=S(=O)(Oc1cc(C(F)(F)F)nnc1-c1cccc(F)c1)c1ccc(Oc2ccccc2)nc1 [Compound 1-146] is ____.
10

Fill blank: measured weed control effect, Chenopodiaceae (activity level) of the compound Cn1ccnc1S(=O)(=O)Oc1cc(C(F)(F)F)nnc1-c1cccc(F)c1 [Compound 1-150] is ____.
10
